PROTOCOL TEXT: logP determination by HPLC on a reversed-phase column (C18), EEC Directive 79/831 Annex V.A8
Assay type: physicochemical
ASSAY METRIC: chromatographic logP
One number for each entry.

                                   compound  observed_value
0  Cn1nc(C(F)(F)C(F)(F)F)c(C(F)(F)F)c1-n1cc(-c2ccc(Cl)c(C(=O)NC3CC3)c2)cn1 [Ic-1]            3.79

Give its chromatographic logP value. Item: Cn1nc(C(F)(F)C(F)(F)F)c(C(F)(F)F)c1-n1cnc(-c2ccc(Cl)c(C(=O)NCc3ccccc3)c2)c1 [Ib-1]
4

###

For each entry below, report its efficacy (laying of fertile eggs) value.
Test system: cattle ticks (Boophilus microplus) Parkhurst strain, SP-resistant
PROTOCOL TEXT: Boophilus microplus dip test (BOOPMI Dip)
Assay type: in vivo
RUN CONDITIONS: application rate 100 ppm, assessed after 7 days
Numbers only, in %.

Field: example entries. Status: answers known.
>>> print(df.to_string())
                                   molecule  observed_value
0  Cn1cc(NC(=O)c2cc(-c3cnn(-c4c(C(F)(F)F)c(C(F)(F)C(F)(F)F)nn4C)c3)ccc2Cl)cn1             100
1  Cn1nc(C(F)(F)C(F)(F)F)c(C(F)(F)F)c1-n1cc(-c2cc(F)c(F)c(C(=O)NC3(C#N)CC3)c2)cn1             100
2  Cn1nc(C(F)(F)C(F)(F)F)c(C(F)(F)F)c1-n1cc(-c2ccc(Cl)c(C(=O)NC3CC3F)c2)cn1 (stereo not shown)             100
3  Cn1nc(C(F)(F)C(F)(F)F)c(C(F)(F)F)c1-n1cc(-c2ccc(Cl)c(C(=O)NC3(C#N)CC3)c2)cn1             100
4  Cn1nc(C(F)(F)C(F)(F)F)c(C(F)(F)F)c1-n1cc(-c2ccc(Cl)c(C(=O)NCC(F)(F)F)c2)cn1             100

The following molecules each have a reported value; give each one's efficacy (laying of fertile eggs).
1. Cn1nc(C(F)(F)C(F)(F)F)c(C(F)(F)F)c1-n1cc(-c2cc(F)c(Cl)c(C(=O)NC3CC3)c2)cn1
2. CNC(=O)C1(N(C)C(=O)c2cc(-c3cnn(-c4c(C(F)(F)F)c(C(F)(F)C(F)(F)F)nn4C)c3)ccc2Cl)CC1
3. Cn1nc(C(F)(F)C(F)(F)F)c(C(F)(F)F)c1-n1cc(-c2cnc(Cl)c(C(=O)NC3(C#N)CC3)c2)cn1
4. Cc1ncc(-c2cnn(-c3c(C(F)(F)F)c(C(F)(F)C(F)(F)F)nn3C)c2)cc1C(=O)NC1(C#N)CC1
5. Cn1nc(C(F)(F)C(F)(F)F)c(C(F)(F)F)c1-n1cc(-c2ccc(Cl)c(C(=O)NC3CC3)c2)cn1

1: 100; 2: 90; 3: 100; 4: 100; 5: 100

###

Exercise: for every item that follows, state its recorded efficacy (dead or moribund fleas).
Tested on: adult cat fleas (Ctenocephalides felis)
PROTOCOL TEXT: Ctenocephalides felis in vitro contact test with adult cat fleas (T1)
RUN CONDITIONS: application rate 5 μg/cm^2; after 48 h
Procedure: T1. Ctenocephalides felis—in vitro Contact Tests with Adult Cat Fleas For the coating of the test tubes, initially 9 mg of active compound are dissolved in 1 ml of acetone p.a. and then diluted with acetone p.a. to the desired concentration. By turning and rocking on an orbital shaker (2 h of rocking rotation at 30 rpm), 250 μl of the solution are distributed homogeneously on the internal walls and the floor of a 25 ml test tube. […]
Please append the unit to your numeric answer.

// known answers, use as guide
In [3]: df
Out[3]:
                                   compound  observed_value
0  CC(NC(=O)c1cc(-c2cnn(-c3c(C(F)(F)F)c(C(F)(F)C(F)(F)F)nn3C)c2)ccc1Cl)C(F)(F)F (stereo not shown)            100%
1  Cc1nn(-c2c(C(F)(F)F)c(C(F)(F)C(F)(F)F)nn2C)cc1-c1ccc(Cl)c(C(=O)NC2CC2)c1            100%
2  Cn1nc(C(F)(F)C(F)(F)F)c(C(F)(F)F)c1-n1cc(-c2ccc(Cl)c(C(=O)NC3(C(F)(F)F)CC3)c2)cn1             80%

Hi! What's the reported efficacy (dead or moribund fleas) for `Cn1nc(C(F)(F)C(F)(F)F)c(C(F)(F)F)c1-n1cc(-c2cc(F)c(Cl)c(C(=O)NC3(C#N)CC3)c2)cn1` on adult cat fleas (Ctenocephalides felis)?
100%
